System: IGROV1 ovarian
Assay: NCI-60 one-dose screen, 48 h (100 = growth as untreated, 0 = no growth, -100 = all killed)
Conditions: 10 µM unless noted
About 83,000 compounds went through this panel and 20% of them were active in at least one assay; those are over-represented in the sample as a whole. Calls of active or inactive are those of the source. Rule for the calls: active = growth percent below 10; inactive = the rest.
# growth annotations

| molecule | growth |
| --- | --- |
| CCCC[C@H]1C(=O)O[C@H](C)[C@H](NC(=O)c2cccc(NC=O)c2O)C(=O)O[C@@H](C)[C@@H]1OC(=O)CC(C)C | 55.6% (inactive) |
| O=[N+]([O-])c1ccc(OCc2ccc(S(=O)(=O)F)c(Cl)c2)c(Cl)c1 | 100% (inactive) |
| COc1c(O)cc2c(c1OC)-c1ccc(SC)c(=O)cc1C(NC(C)=O)CC2 (stereo not drawn) | -44.2% (active) |
| N#CC(C#N)=C(C#N)C#N | 108% (inactive) |
| CC(=O)OC1CC2(O)C(CCC3(C)C(c4ccc(=O)oc4)CCC32O)C2(C)CCC(OC3OC(CO)C(O)C(O)C3O)C=C12 (stereo not drawn) | -26.5% (active) |
| O=NN1CCCCC1 | 116% (inactive) |
| CC1OC(=O)C(C(C)C)NC(=O)C(C(C)C)OC(=O)C(C(C)C)NC(=O)C(C)OC(=O)C(C(C)C)NC(=O)C(C(C)C)OC(=O)C(C(C)C)NC(=O)C(C)OC(=O)C(C(C)C)NC(=O)C(C(C)C)OC(=O)C(C(C)C)NC1=O (stereo not drawn) | -25% (active) |
| Cn1cc(-c2csc(-c3cn(CCCCN4CCOCC4)c4ccc(F)cc34)n2)c2cccnc21 | 65.4% (inactive) |
| Cc1nc2ccccc2c(=O)n1-c1ccccc1F | 111% (inactive) |
| COC12CC3C4=CCOC5CC(=O)N6c7ccccc7C1(CCN2C4)C6C53 (stereo not drawn) | 108% (inactive) |
| CC[C@@H](C)C(=O)O[C@H]1[C@H](O)[C@H]2[C@@H](CN3C[C@@H](C)CC[C@H]3[C@@]2(C)O)[C@@H]2C[C@]34O[C@]5(O)[C@@H](OC(=O)[C@@](C)(O)CC)CC[C@@]3(C)[C@@H]5[C@@H](OC(C)=O)[C@@H](OC(C)=O)[C@H]4[C@@]21O | 106% (inactive) |
| N[C@@H](CCC(=O)CCl)C(=O)O | 99.5% [20 µM] (inactive) |
| CCCn1cc2c3c(cccc31)[C@H]1C[C@@H](C)CN(C)[C@@H]1C2 | 35.1% (inactive) |

---

System: NCI-H226 lung
Assay: NCI-60 one-dose screen, 48 h
Conditions: 10 µM unless noted
This is part of a sample that, as a whole, favours compounds with a hit. Of some 83,000 tested, about 20% had one in any assay. Calls of active or inactive are those of the source. How the source made its calls: active means growth percent below 10; inactive means the rest.
Classes used: 1 for active, -1 for inactive

| compound | qualitative_label |
| --- | --- |
| COc1ccn(C)c(=O)c1C#N | -1 |
| Nc1nc(=S)nc(N)[nH]1 | -1 |
| N#CCc1ccc(CC#N)cc1 | -1 |
| CN1CCN(c2ccc(Cl)cc2)CC1 | -1 |
| O=S(=O)(c1ccc(O)cc1)c1ccccc1O | -1 |
| C[C@]12CCC3[C@@H](C[C@@H]4SC(Nc5ccccc5)=N[C@@]45CC(=O)CC[C@]35C)[C@@H]1CCC2=O (stereo partly drawn) | -1 |
| O=C(Cc1ccccc1)c1ccccc1 | -1 |
| CCOC(=O)c1ccccc1C(=O)OCC | -1 |
| O=C1NC(=O)C(=C/C=C/c2ccccc2)C(=O)N1 | -1 |
| CCCC1CCCCC12C(=O)NC(=O)NC2=O (stereo not drawn) | -1 |
| N#Cc1ccc(Cl)cc1 | -1 |
| CC(=O)OC1CC2(O)C(CCC3(C)C(c4ccc(=O)oc4)CCC32O)C2(C)CCC(OC3OC(CO)C(O)C(O)C3O)C=C12 (stereo not drawn) | 1 |
| CC[C@@H](C)C(=O)O[C@H]1[C@H](O)[C@H]2[C@@H](CN3C[C@@H](C)CC[C@H]3[C@@]2(C)O)[C@@H]2C[C@]34O[C@]5(O)[C@@H](OC(=O)[C@@](C)(O)CC)CC[C@@]3(C)[C@@H]5[C@@H](OC(C)=O)[C@@H](OC(C)=O)[C@H]4[C@@]21O | -1 |
